test: Drug concentration in male Sprague-Dawley rat plasma at 5 mg/kg, ip measured after 1 hr by LC-MS/MS analysis; format: ADME, organism-based
endpoint: concentration at 1 h (ng/mL)
# number only, unit ng/mL dropped from output

// query Record request: concentration at 1 h value, item `Cc1ccc(-c2nnc(NCCCO)c3ccccc23)cc1`
// result 360

###

experiment: Intrinsic clearance in rat liver microsomes at 0.2 uM in presence of NADPH incubated for 30 mins by LC-MS/MS analysis; format: ADME, Microsome; conditions: read-out: CLH
endpoint: microsomal CLint at 0.2 µM

// query Give the measured microsomal CLint at 0.2 µM of `Cc1c(N[C@@H]2CCCC[C@H]2O)nnc(-c2ccc(C(F)(F)F)cc2O)c1C` .
// result < 20 µL/min/mg

###

assay: Inhibition of NLRP3 inflammasome activation in LPS/ATP stimulated human THP-1 cells assessed as inhibition of IL-1beta production pretreated with compound for 15 mins followed by LPS and ATP addition and measured after 2 hrs by ELISA; assay type: cell-based
Listing: IC50 of selected compounds
# number only, unit nM dropped from output

# example entries with known answers
[[record]]
compound = "C[C@@H](O)CNc1ccc(-c2ccc(C(F)(F)F)cc2C(F)(F)F)nn1"
endpoint = "IC50"
recorded_number = 150

[[record]]
compound = "Cc1cc(-c2ccc(C(F)(F)F)cc2C(F)(F)F)nnc1NC[C@@H](C)O"
endpoint = "IC50"
recorded_number = 90

[[record]]
compound = "Cc1c(N[C@H]2CCC[C@@H]2O)nnc(-c2ccc(C(F)(F)F)cc2O)c1C"
endpoint = "IC50"
recorded_number = 650

[[record]]
compound = "CC(CO)CNc1nnc(-c2ccc(C(F)(F)F)cc2)c2ccccc12 (stereo not drawn)"
endpoint = "IC50"
recorded_number = 230

[[record]]
compound = "Cc1cc(NC[C@@H](C)O)nnc1-c1ccc(C(F)(F)F)cc1O"
endpoint = "IC50"
recorded_number = 17

[[record]]
compound = "Cc1cc(NC[C@@H](C)O)nnc1-c1ccc(C(F)(F)F)cc1C(F)(F)F"
endpoint = "IC50"
recorded_number = 200

[[record]]
compound = "CC(O)CCNc1nnc(-c2ccc(C(F)(F)F)cc2)c2ccccc12 (stereo not drawn)"
endpoint = "IC50"
recorded_number = 1200

[[record]]
compound = "Cc1c(NC[C@@H](C)O)nnc(-c2ccc(C(F)(F)F)cc2C(F)(F)F)c1C"
endpoint = "IC50"
recorded_number = 210


// query Name the recorded IC50 for `Cc1c(NC[C@@H](C)O)nnc(-c2ccc(C(F)(F)F)cc2O)c1C` .
// result 14

// query Field request: IC50 | item: `OCCCNc1nnc(-c2ccc(C(F)(F)F)cc2)c2ccccc12`
// result 370

// query Sample CC(CCO)Nc1nnc(-c2ccc(C(F)(F)F)cc2)c2ccccc12 (stereo not drawn) — what was its IC50?
// result 3500

// query So what's the measured IC50 for this one? `OCCCNc1nnc(-c2cccc(C(F)(F)F)c2)c2ccccc12`
// result 17000

// query Tell me the measured IC50 of `COCCCNc1nnc(-c2ccc(C(F)(F)F)cc2)c2ccccc12` , please.
// result 1700

###

test: Inhibition of NLRP3 inflammasome activation in LPS/ATP stimulated human THP-1 cells assessed as inhibition of IL-1beta production pretreated with compound for 15 mins followed by LPS and ATP addition and measured after 2 hrs by ELISA; assay type: cell-based
endpoint: IC50 (nM)
A number alone suffices; assume nM.

Previously resolved entries follow.
[[record]]
smiles_entry = "C[C@H](O)CNc1nnc(-c2ccc(C(F)(F)F)cc2)c2ccccc12"
endpoint = "IC50"
unit_descriptor = "nM"
recorded_number = 230

[[record]]
smiles_entry = "Cc1cc(C(F)(F)F)ccc1-c1nnc(NCCCO)c2ccccc12"
endpoint = "IC50"
unit_descriptor = "nM"
recorded_number = 490

[[record]]
smiles_entry = "CC(C)(CO)CNc1nnc(-c2ccc(C(F)(F)F)cc2)c2ccccc12"
endpoint = "IC50"
unit_descriptor = "nM"
recorded_number = 1000


// query // lookup IC50 for `Cc1c(N[C@H]2CCC[C@H]2O)nnc(-c2ccc(C(F)(F)F)cc2O)c1C`
// result 27

// query Reported IC50, compound `C[C@@H](O)CNc1nnc(-c2ccc(C(F)(F)F)cc2C(F)(F)F)c2ccccc12` : ____
// result 57

###

assay: Ratio of drug concentration in brain to plasma in male Sprague-Dawley rat at 5 mg/kg, ip measured after 1 hr by LC-MS/MS analysis; type: ADME, organism-based; settings: brain and plasma, read-out: BPR
endpoint: Kp at 1 h
The reply should be a number, written without any unit.

// query What value of Kp at 1 h has been recorded for this entry: `Cc1ccc(-c2nnc(NCCCO)c3ccccc23)cc1`
// result 0.33

###

experiment: Inhibition of NLRP3 inflammasome activation in LPS/ATP stimulated human THP-1 cells assessed as inhibition of IL-1beta production pretreated with compound for 15 mins followed by LPS and ATP addition and measured after 2 hrs by ELISA; format: cell-based
pIC50: −log10 of the molar value.
Outcome label depends on pIC50 relative to 6: at/above gives y, below gives n.

[[record]]
smiles_entry = "Cc1c(NC[C@@H](C)O)nnc(-c2ccc(C(F)(F)F)cc2C(F)F)c1C"
class_assignment = "y"

[[record]]
smiles_entry = "OCCCNc1nnc(-c2ccc(C(F)(F)F)cc2Cl)c2ccccc12"
class_assignment = "y"


// query Does the reported pIC50 for `Cc1c(N[C@@H]2CCC[C@H]2O)nnc(-c2ccc(C(F)(F)F)cc2O)c1C` fall at or above the 6 mark?
// result y

// query Say whether `C[C@@H](O)CNc1nnc(-c2ccc(C(F)(F)F)cc2)c2ccccc12` shows pIC50 of 6 or more.
// result y

// query Answer whether pIC50 of `OCCCNc1nnc(-c2ccc(C(F)(F)F)cc2F)c2ccccc12` is greater than or equal to 6.
// result y

// query Record `Cc1cc(-c2ccc(C(F)(F)F)cc2O)nnc1NC[C@@H](C)O` ; criterion: pIC50 no lower than 6. Met?
// result y

// query Quick check: does `OCCCNc1nnc(-c2ccccc2C(F)(F)F)c2ccccc12` have pIC50 greater than or equal to 6?
// result n

// query Determine whether this molecule has pIC50 no lower than 6: `Cc1ccc(-c2nnc(NCCCO)c3ccccc23)cc1`
// result n

// query Tell me whether pIC50 is at least 6 here: `OCCNc1nnc(-c2ccc(C(F)(F)F)cc2)c2ccccc12`
// result y

// query Textbook exercise: given the entry `OCCCNc1nnc(-c2ccc(C(F)(F)F)cc2C(F)(F)F)c2ccccc12` , state whether its pIC50 is greater than or equal to 6.
// result y

###

assay: Drug concentration in male Sprague-Dawley rat plasma at 10 mg/kg, ip measured after 1 hr by LC-MS/MS analysis; format: ADME, organism-based
endpoint: concentration at 1 h (µg/mL)
The answer is to be given in µg/mL; state only the numeric part.

// query Form field: reported concentration at 1 h of `CC(C)(O)c1coc(S(=O)(=O)NC(=O)Nc2c3c(cc4c2CCC4)CCC3)c1`
// result 2.32
